For each record, write down the corresponding pKi.
study system: Beta-hexosaminidase subunit beta (Homo sapiens, UniProt P07686)
Sequence (P07686 whole entry): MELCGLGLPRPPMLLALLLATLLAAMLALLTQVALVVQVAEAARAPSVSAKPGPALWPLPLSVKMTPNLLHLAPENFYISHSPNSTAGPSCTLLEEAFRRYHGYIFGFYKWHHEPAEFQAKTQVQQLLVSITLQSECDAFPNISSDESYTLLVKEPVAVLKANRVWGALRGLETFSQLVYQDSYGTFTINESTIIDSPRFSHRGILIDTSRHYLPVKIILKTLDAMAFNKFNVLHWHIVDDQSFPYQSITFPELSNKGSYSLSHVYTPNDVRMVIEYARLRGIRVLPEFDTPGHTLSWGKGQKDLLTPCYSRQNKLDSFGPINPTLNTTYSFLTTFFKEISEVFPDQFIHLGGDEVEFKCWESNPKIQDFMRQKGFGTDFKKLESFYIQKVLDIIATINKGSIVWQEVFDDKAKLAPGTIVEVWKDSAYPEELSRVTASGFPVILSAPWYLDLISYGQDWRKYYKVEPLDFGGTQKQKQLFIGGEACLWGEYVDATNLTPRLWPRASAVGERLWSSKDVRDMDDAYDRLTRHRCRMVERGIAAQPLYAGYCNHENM
experiment summary: Inhibition Assay
Protocol: Hexosaminidase activity assay was measured by fluorometry, VersaFluor Fluorometer from Bio-Rad.
Value format note: pKi is -log10 of concentration (mol/L); just state the number.

Entry CC(=O)NC1CN(C)C(CO)C(O)C1O (configuration not stated) ; pKi = 6.07

Given item CC1=NC2C(OC(OS(=O)(=O)O)C(O)C2O)S1 (configuration not stated) , the value recorded as its pKi is 4.00

So, CC(=O)N[C@@H]1[C@@H](O)[C@H](O)[C@@H](OS(=O)(=O)O)N1C ? Its pKi was 5.30

CC(=O)N[C@@H]1N[C@H](CO)[C@@H](O)[C@@H]1O has a reported pKi of 6.62

Value of pKi reported for the compound CC(=O)N[C@H]1N[C@H](CO)[C@@H](O)[C@@H]1O is 7.40

The compound listed as CC(=O)N[C@H]1[C@@H](O)[C@H](O)[C@@H](CO)N1C has a reported pKi of 7.19

CC(=O)N[C@@H]1[C@@H](O)[C@H](O)[C@@H](CO)N1C yielded pKi of 7.62

Reference for the values: BindingDB's records for doi:10.1016/S1074-5521(01)00045-X
